As an illustration, consider measured IC50 for molecules on human Gal-3 (hGal-3) (Homo sapiens (Human), UniProt P17931).
Sequence (P17931 whole entry): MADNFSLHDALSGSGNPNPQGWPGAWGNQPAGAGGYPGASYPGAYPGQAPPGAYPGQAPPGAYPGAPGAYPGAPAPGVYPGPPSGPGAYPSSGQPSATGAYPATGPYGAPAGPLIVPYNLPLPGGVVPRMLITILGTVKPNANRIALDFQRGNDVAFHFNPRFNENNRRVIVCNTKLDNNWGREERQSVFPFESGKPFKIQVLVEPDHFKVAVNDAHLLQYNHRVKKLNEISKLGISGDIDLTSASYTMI
measured_parameter: IC50 (µM)

{"smiles_notation": "CO[C@@H]1[C@@H](n2cc(-c3cc(F)c(C)c(F)c3)nn2)[C@@H](O)[C@@H](CO)O[C@H]1C(=O)N(c1cc(F)cc(Br)c1)[C@H]1CCCC[C@@H]1O", "measured_parameter": "IC50", "quantitative_result": 0.011}

[P] CO[C@@H]1[C@@H](n2cc(-c3cc(F)c(F)c(F)c3)nn2)[C@@H](O)[C@@H](CO)O[C@H]1C(=O)N(Cc1ncccc1C(F)(F)F)[C@H]1CCCC[C@@H]1O
[Q] CO[C@@H]1[C@@H](n2cc(-c3cc(F)c(F)c(F)c3)nn2)[C@@H](O)[C@@H](CO)O[C@H]1C(=O)N(c1ccc(Cl)c(Br)c1)[C@H]1CCCC[C@@H]1O
[R] COc1ncnc(OC)c1CN(C(=O)[C@@H]1O[C@H](CO)[C@H](O)[C@H](n2cc(-c3cc(F)c(F)c(F)c3)nn2)[C@H]1O)[C@H]1CCCC[C@@H]1O
[S] O=C([C@@H]1O[C@H](CO)[C@H](O)[C@H](n2cc(-c3cc(F)c(F)c(F)c3)nn2)[C@H]1O)N(Cc1ccccc1Cl)[C@H]1CCCC[C@@H]1O
Write the entries in order, lowest recorded IC50 first. Please list the labels according to the requested order.
Q, S, R, P
